The measured values listed here are drawn from ChEMBL document CHEMBL5550217.

Documented pIC50 across a set of molecules
- PROTOCOL: Inhibition of RSV RNA polymerase assessed as RNA products using […] template by Flashplate primer extension enzymatic assay
- Design: species or system Respiratory syncytial virus
pIC50: −log10 of the molar value.
ENDPOINT: pIC50

- COc1cc(C(=O)NC[C@](O)(c2cc(C(C)(C)O)c(F)c(-c3ccc(F)cc3)n2)C(F)(F)F)cc2cc(C(F)F)cnc12: 8.77
- COc1cc(C(=O)NC[C@](O)(c2cc(C(C)(C)O)c(F)c(-c3ccc(F)cc3)n2)C(F)(F)F)cc2cc(C3CC3)cnc12: 8.70
- COc1cc(C(=O)NC[C@](O)(c2cc(C(C)(C)O)c(F)c(-c3ccc(F)cc3)n2)C(F)(F)F)cc2cc(CF)cnc12: 8.42
- COc1cc(C(=O)NC[C@](O)(c2cc(C(C)(C)O)c(F)c(-c3ccc(F)cc3)n2)C(F)(F)F)cc2cc(C(F)(F)F)cnc12: 9.14

----------
- PROTOCOL: Metabolic stability in rat hepatocytes assessed as intrinsic clearance per 10^6 cells at 1 uM measured upto 180 mins by LC-MS/MS analysis
- Assay type: ADME, cell-based, Hepatocyte
- ASSAY_SETUP: read-out: CLH
ENDPOINT: log10 hepatocyte CLint at 1 µM (log10 of the value in µL/min/1e6 cells)

• COc1cc(C(=O)NC[C@](O)(c2cc(C(C)(C)O)c(F)c(-c3ccc(F)cc3)n2)C(F)(F)F)cc2cccnc12 = 2.08
• COc1cc(C(=O)NC[C@](O)(c2cc3c(c(-c4ccc(F)cc4)n2)OC[C@]3(C)NC(C)=O)C(F)(F)F)cc2cccnc12 = 1.04
• COc1cc(C(=O)NC[C@](O)(c2cc3c(c(-c4ccc(F)cc4)n2)OC[C@]3(C)NS(C)(=O)=O)C(F)(F)F)cc2nc(N)sc12 = 1.86
• COc1cc(C(=O)NC[C@](O)(c2cc(C(C)(C)O)c(F)c(-c3ccc(F)cc3)n2)C(F)(F)F)cc2cc(C)c(F)nc12 = 1.76
• COc1cc(C(=O)NC[C@](O)(c2cc3c(c(-c4ccc(F)cc4)n2)OC[C@]3(C)NS(C)(=O)=O)C(F)(F)F)ccc1OC[C@@H](C)O = 1.45
• COc1cc(C(=O)NC[C@](O)(c2cc3c(c(-c4ccc(F)cc4)n2)OC[C@]3(C)NS(C)(=O)=O)C(F)(F)F)cn2cc(CO)nc12 = 1.30
• COc1cc(C(=O)NC[C@](O)(c2cc3c(c(-c4ccc(F)cc4)n2)OC[C@]3(C)NC(C)=O)C(F)(F)F)ccc1OC[C@@H](C)O = 1.11

----------
- PROTOCOL: Metabolic stability in human hepatocytes assessed as intrinsic clearance measured per 10^6 cells
- Type: ADME, cell-based, Hepatocyte
- ASSAY_SETUP: read-out: CLH
ENDPOINT: hepatocyte CLint (µL/min/1e6 cells)

* COc1cc(C(=O)NC[C@](O)(c2cc3c(c(-c4ccc(F)cc4)n2)OC[C@]3(C)N)C(F)(F)F)ccc1OC[C@@H](C)O | 31

----------
- PROTOCOL: Metabolic stability in human hepatocytes assessed as intrinsic clearance per 10^6 cells at 1 uM measured upto 180 mins by LC-MS/MS analysis
- Format: ADME, cell-based, Hepatocyte
- ASSAY_SETUP: read-out: CLH
ENDPOINT: hepatocyte CLint at 1 µM

* COc1cc(C(=O)NC[C@](O)(c2cc(C(C)(C)O)c(F)c(-c3ccc(F)cc3)n2)C(F)(F)F)cc2cc(C3CC3)cnc12 | < 1.9 µL/min/1e6 cells
* COc1cc(C(=O)NC[C@](O)(c2cc(C(C)(C)O)c(F)c(-c3ccc(F)cc3)n2)C(F)(F)F)cc2cc(Cl)nnc12 | < 1.2 µL/min/1e6 cells
* CC(=O)N[C@@]1(C)COc2c1cc([C@@](O)(CNC(=O)c1cc(OC3CC3)c3ncccc3c1)C(F)(F)F)nc2-c1ccc(F)cc1 | < 1.9 µL/min/1e6 cells
